// read-out Ki, gathered for Prothrombin (Homo sapiens, UniProt P00734) from published studies
METRIC_NAME: Ki

[[record]]
molecule = "CCOc1cc(OC2CCN(S(C)(=O)=O)CC2)cc(C(Nc2ccc(C(=N)N)cc2)C(=O)O)c1 (stereo unspecified)"
recorded_value = "> 3.5 µM"

[[record]]
molecule = "Cc1cc2ccc1[C@@H](C)COC(=O)Nc1ccc(C3(C(=O)O)CCCC3)c(c1)CN(C)C(=O)[C@@H]2Nc1ccc2c(N)ncc(F)c2c1"
recorded_value = "> 13.3 µM"

[[record]]
molecule = "N=C(N)c1cccc(CN2CC[C@H](NS(=O)(=O)c3ccc4ccc(Cl)nc4c3)C2=O)c1"
recorded_value = "> 4 µM"

[[record]]
molecule = "N=C(N)c1ccc2ccc(CN(CCc3cnc[nH]3)C(=O)c3cccc4ccccc34)cc2c1"
recorded_value = "> 5 µM"

[[record]]
molecule = "O=C(Nc1cccc(Cl)c1C(=O)Nc1ccc(Cl)cc1)c1sc2ccccc2c1Cl"
recorded_value = "> 5 µM"

[[record]]
molecule = "O=C(Nc1ccc(Cl)cc1)c1ccccc1NC(=O)c1sc2ccccc2c1Cl"
recorded_value = "> 5 µM"


* * *

pKi: −log10 of the molar value.
Collected pKi for Prothrombin (Homo sapiens, UniProt P00734) across several studies; compounds listed below.
Classification field: YES = pKi at or over 6; NO = pKi under 6.

[[record]]
compound = "N=C(N)c1ccc2[nH]c(-c3cc(CC(=O)O)cc(-c4cccc([N+](=O)[O-])c4)c3O)nc2c1"
study_system = "Prothrombin (Homo sapiens, UniProt P00734)"
label_value = "NO"

[[record]]
compound = "Cc1c(F)c(Oc2ccccc2)nc(Oc2cccc(C(=N)N)c2)c1F"
study_system = "Prothrombin (Homo sapiens, UniProt P00734)"
label_value = "NO"

[[record]]
compound = "Cc1c(F)c(Oc2cccc(C(=N)N)c2)nc(Oc2cccc(N3CCOCC3)c2)c1F"
study_system = "Prothrombin (Homo sapiens, UniProt P00734)"
label_value = "NO"

[[record]]
compound = "Cc1cc(C)cc(CCN(CC(=O)NC(CCCNC(=N)N)B(O)O)C(=O)CCc2ccccc2)c1 (stereo not given)"
study_system = "Prothrombin (Homo sapiens, UniProt P00734)"
label_value = "YES"

[[record]]
compound = "N=C(N)c1ccc(OCC[C@@H]2CCCCN2C(=O)[C@@H](CC2CCCCC2)NCC(=O)O)cc1"
study_system = "Prothrombin (Homo sapiens, UniProt P00734)"
label_value = "YES"

[[record]]
compound = "NC(N)c1ccc(CC(=O)C(=O)O)cc1"
study_system = "Prothrombin (Homo sapiens, UniProt P00734)"
label_value = "YES"

[[record]]
compound = "COC(=O)C(=O)NC(CCc1cccc[n+]1[O-])C(=O)NCC(=O)NCc1cc(Cl)ccc1CN (stereo not given)"
study_system = "Prothrombin (Homo sapiens, UniProt P00734)"
label_value = "NO"

[[record]]
compound = "Cc1ccc(S(=O)(=O)N(c2cccc(OCCNc3ccncc3)c2)S(=O)(=O)c2ccc(C)cc2)cc1"
study_system = "Prothrombin (Homo sapiens, UniProt P00734)"
label_value = "YES"

[[record]]
compound = "Cc1cc(C)c(S(=O)(=O)N=C(N)N)c(C)c1"
study_system = "Prothrombin (Homo sapiens, UniProt P00734)"
label_value = "YES"


* * *

pKi: −log10 of the molar value.
Below are pKi values for Prothrombin (Homo sapiens, UniProt P00734) collected from several publications.
METRIC_NAME: pKi

[[record]]
molecule = "CS(=O)(=O)c1ccccc1S(=O)(=O)Oc1cc(CO)cc(OCC2(CON=C(N)N)CC2)c1"
study_system = "Prothrombin (Homo sapiens, UniProt P00734)"
metric_name = "pKi"
comparison_symbol = "="
recorded_value = 6.39

[[record]]
molecule = "CCOc1cc(OC(C)C)c(F)c(C(Nc2ccc(C(=N)N)cc2)c2nc(-c3ccc(C)cc3)c[nH]2)c1 (stereo not given)"
study_system = "Prothrombin (Homo sapiens, UniProt P00734)"
metric_name = "pKi"
comparison_symbol = "="
recorded_value = 6.12

[[record]]
molecule = "Cc1c(F)c(Oc2cccc(C(=N)N)c2)nc(Oc2cccc(C(=O)O)c2)c1F"
study_system = "Prothrombin (Homo sapiens, UniProt P00734)"
metric_name = "pKi"
comparison_symbol = "<"
recorded_value = 5.30

[[record]]
molecule = "CC(C)(C)OC(=O)N(CCOc1cccc(N(S(=O)(=O)c2ccccc2)S(=O)(=O)c2ccccc2)c1)c1ccncc1"
study_system = "Prothrombin (Homo sapiens, UniProt P00734)"
metric_name = "pKi"
comparison_symbol = "="
recorded_value = 6.01

[[record]]
molecule = "COc1cc(CNc2ccc(C(=N)N)cc2)c(NS(C)(=O)=O)cc1OCc1ccccc1"
study_system = "Prothrombin (Homo sapiens, UniProt P00734)"
metric_name = "pKi"
comparison_symbol = "="
recorded_value = 5.85

[[record]]
molecule = "CCCN(Cc1nccs1)C(=O)c1cc(C)cc(OCCCONC(=N)N)c1"
study_system = "Prothrombin (Homo sapiens, UniProt P00734)"
metric_name = "pKi"
comparison_symbol = "="
recorded_value = 6.71

[[record]]
molecule = "Cc1cc(N)nc(C)c1CNC(=O)[C@@H]1CCCN1C(=O)[C@H](N)C(c1ccccc1)c1ccccc1"
study_system = "Prothrombin (Homo sapiens, UniProt P00734)"
metric_name = "pKi"
comparison_symbol = "="
recorded_value = 8.00

[[record]]
molecule = "Nc1ccc(C[C@H](NS(=O)(=O)c2cnccc2N[C@H](CNCCO)Cc2ccccc2)C(=O)N2CCC(CCF)CC2)cc1"
study_system = "Prothrombin (Homo sapiens, UniProt P00734)"
metric_name = "pKi"
comparison_symbol = "="
recorded_value = 7.14

[[record]]
molecule = "COc1cccc(-n2nc(C)cc2C(=O)Nc2ccc(-c3ccccc3S(N)(=O)=O)cc2)c1"
study_system = "Prothrombin (Homo sapiens, UniProt P00734)"
metric_name = "pKi"
comparison_symbol = "<"
recorded_value = 4.68

[[record]]
molecule = "COC(=O)Nc1ccc(-c2c[nH]c([C@H](Cc3ccccc3)NC(=O)/C=C/c3cc(Cl)ccc3-n3cnnn3)n2)cc1"
study_system = "Prothrombin (Homo sapiens, UniProt P00734)"
metric_name = "pKi"
comparison_symbol = "<"
recorded_value = 4.82


* * *

// cross-study collection: Ki for UniProtKB P00734
METRIC_NAME: Ki (µM)

[[record]]
molecule = "Cc1c(F)c(Oc2cccc(C(=N)N)c2)nc(Oc2cccc([N+](=O)[O-])c2)c1F"
comparison_symbol = ">"
recorded_value = 5

[[record]]
molecule = "N=C(N)c1ccc(CNC(=O)[C@@H]2CCCN2C(=O)Cc2ccccc2)cc1"
comparison_symbol = "="
recorded_value = 0.2

[[record]]
molecule = "CC(C)C[C@H](NC(=O)[C@H](Cc1ccccc1)NC(=O)c1cnccn1)B(O)O"
comparison_symbol = "="
recorded_value = 13

[[record]]
molecule = "Nc1noc2ccc(-n3nc(C(F)(F)F)cc3C(=O)N3CCc4cc(-c5ccccc5S(N)(=O)=O)ccc43)cc12"
comparison_symbol = ">"
recorded_value = 21

[[record]]
molecule = "N=C(N)Nc1ccc(CNC(=O)N2CCN(C(=O)O[C@H]3CCC[C@@H](OC(=O)N4CCN(C(=O)CCCCn5ccnc5)CC4)CCC3)CC2)cc1"
comparison_symbol = ">"
recorded_value = 1000

[[record]]
molecule = "CCOC(=O)c1cccc(Oc2nc(Oc3cccc(C(=N)N)c3)c(F)c(C)c2F)c1"
comparison_symbol = ">"
recorded_value = 5

[[record]]
molecule = "O=C(NC[C@@H]1CN(c2ccc(N3CCC(C(=O)O)CC3)cc2)C(=O)O1)c1ccc(-c2noc(=O)[nH]2)cc1"
comparison_symbol = ">"
recorded_value = 100

[[record]]
molecule = "CN(C)C(=O)c1cccc(Oc2nc(Oc3cc(C(=N)N)ccc3O)nc3c2NC(=O)CN3)c1"
comparison_symbol = ">"
recorded_value = 5

[[record]]
molecule = "Nc1ccc(C[C@H](NS(=O)(=O)c2cnccc2N[C@H](CO)Cc2ccccc2)C(=O)N2CCC(CCCl)CC2)cc1"
comparison_symbol = "="
recorded_value = 0.027

[[record]]
molecule = "CC1(C)CNc2c(cccc2S(=O)(=O)N[C@@H](Cc2nc3ccccc3s2)C(=O)N2CCC(CCC(=O)O)CC2)C1"
comparison_symbol = "="
recorded_value = 7.83

[[record]]
molecule = "NCCc1ccc(CCNC(=O)N2CCN(C(=O)O[C@H]3CCC[C@@H](OC(=O)N4CCN(C(=O)NCCc5ccc(CCN)cc5)CC4)CCC3)CC2)cc1"
comparison_symbol = ">"
recorded_value = 1000

[[record]]
molecule = "N=C(N)Nc1ccc(CNC(=O)N2CCN(C(=O)CCCCC(=O)N3CCN(C(=O)NCc4ccc(NC(=N)N)cc4)CC3)CC2)cc1"
comparison_symbol = ">"
recorded_value = 1000

[[record]]
molecule = "Cc1ccc(NC(=O)c2sc3ccccc3c2Cl)c(C(=O)Nc2ccc(CN)cc2)c1"
comparison_symbol = ">"
recorded_value = 5

[[record]]
molecule = "CC(=N)N1CCC(Oc2ccc(NC/C=C/c3cccc(C(=N)N)c3)cc2C(F)(F)F)CC1"
comparison_symbol = "="
recorded_value = 2.14

[[record]]
molecule = "CNc1ccc(N2CCc3c(C(F)(F)F)nn(-c4ccc(OC)cc4)c3C2=O)cc1"
comparison_symbol = ">"
recorded_value = 6.3

[[record]]
molecule = "COC(=O)C1C/C(=C/c2ccc(C(=N)N)cc2)C(=O)/C(=C/c2ccc(C(=N)N)cc2)C1 (configuration not stated)"
comparison_symbol = "="
recorded_value = 0.6

[[record]]
molecule = "CC(C)c1cc(C(C)C)c(S(=O)(=O)N[C@@H](Cc2cccc(C(=N)N)c2)C(=O)N2CCN(C(=O)CCN=C(N)N)CC2)c(C(C)C)c1"
comparison_symbol = "="
recorded_value = 1.6

[[record]]
molecule = "O=C(NCc1cccc(Cl)c1)[C@@H]1CCCN1C(=O)CCC1CCCCC1"
comparison_symbol = "="
recorded_value = 29.7

[[record]]
molecule = "Nc1noc2ccc(-n3nnnc3C(=O)Nc3ccc(-c4ccccc4S(N)(=O)=O)cc3)cc12"
comparison_symbol = "="
recorded_value = 1.5

[[record]]
molecule = "CC(=N)N1CCC(N(CC(C)C(=O)O)c2ccc3nc(C)n(Cc4ccc5ccc(C(=N)N)cc5c4)c3c2)CC1 (configuration not stated)"
comparison_symbol = "="
recorded_value = 0.65

[[record]]
molecule = "CCCc1nc2ccc(OC3CCN(C(C)=N)CC3)cc2n1Cc1ccc2ccc(C(=N)N)cc2c1"
comparison_symbol = "="
recorded_value = 0.07

[[record]]
molecule = "CCCNS(=O)(=O)c1ccccc1-c1ccc(NC(=O)Cc2c[nH]c3ccc(C(=N)N)cc23)cc1"
comparison_symbol = "="
recorded_value = 0.4

[[record]]
molecule = "N=C(N)c1ccc(Oc2cc(C(=O)N3CCC(CCN)CC3)cc(Oc3ccc(C(=N)N)cc3)n2)cc1"
comparison_symbol = ">"
recorded_value = 2.5

[[record]]
molecule = "CNC(=O)OCc1cc2c(c(S(=O)(=O)N[C@@H](Cc3nc4ccccc4s3)C(=O)N3CCC(CCF)CC3)c1)NCC(C)(C)C2"
comparison_symbol = "="
recorded_value = 0.077

[[record]]
molecule = "N=C(N)Nc1ccc(CNC(=O)N2CCN(C(=O)O[C@H]3CCC[C@@H](OC(=O)N4CCN(C(=O)CCc5cnc(N)nc5)CC4)CCC3)CC2)cc1"
comparison_symbol = ">"
recorded_value = 1000

[[record]]
molecule = "Cc1ccc(S(=O)(=O)c2cc(C)n(CC(=O)NCc3ccc(N)nc3C)c(=O)c2N)cc1"
comparison_symbol = "="
recorded_value = 0.094

[[record]]
molecule = "N=C(N)c1ccc(O)c(CCCNC(=O)c2ccc(-c3ncc[nH]3)cc2)c1"
comparison_symbol = ">"
recorded_value = 4

